Entry source: PubChem BioAssay (NCATS)

Assay: qHTS Assay for Identification of Small Molecule Antagonists for NFkB Signaling Pathway. (AID 624479);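 note: pathway stimulated with TNF alpha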
Settings: NFkB pathway reporter cell assay, antagonist mode; series mostly up to 38.3 µM
Calls of active or inactive are those of the source. Calls come from the whole dose curve.
One label from this list, please: active, inactive

Example cases with answers are listed next.
SMILES_STR | CLASSIFICATION
C#Cc1cccc(Nc2ncnc3cc(OC)c(OCCCCCCC(=O)NO)cc23)c1 | active
COc1cc(=C2C=c3ccccc3=N2)[nH]c1=Cc1[nH]c(C)cc1C | inactive
CC(C)c1ccccc1Cc1cc(C(=O)Nc2ccc(S(=O)(=O)c3ccccc3C(C)(C)C)cc2)c(O)c(O)c1O | active
CC(=O)c1c(C)c2cnc(Nc3ccc(N4CCNCC4)cn3)nc2n(C2CCCC2)c1=O | active
COC(=O)[C@]12CCC(C)(C)C[C@@H]1[C@@H]1C(=O)C=C3[C@@]4(C)C=C(C#N)C(=O)C(C)(C)[C@@H]4CC[C@@]3(C)[C@]1(C)CC2 | active
COc1cc2ncnc(Nc3ccc(F)c(Cl)c3)c2cc1NC(=O)C=CCN1CCCCC1 | active
CCN1CCN(Cc2ccc(-c3cc4c(N[C@H](C)c5ccccc5)ncnc4[nH]3)cc2)CC1 | active
CN1CC[C@@H](c2c(O)cc(O)c3c(=O)cc(-c4ccccc4Cl)oc23)[C@@H](O)C1 | active
c1ccc2c(CCNc3ccc(Nc4ccncc4)cc3)c[nH]c2c1 | active
Cn1cc(-c2[nH]c3cc(NC(=O)[C@H](N)C4CCCCC4)cc4c3c2C=NNC4=O)cn1 | inactive

Query :: // return assay outcome for `O=C(O)c1ccc2c(c1)nc(Nc1cccc(Cl)c1)c1ccncc12`
Result :: active

Query :: Now consider `COc1cccc2nc(-c3cccs3)nc(NN3C(=O)C=C(C)C3=O)c12` and answer again.
Result :: active

Query :: Cool, now `O=C(O)[C@H](Cc1c[nH]c2ccccc12)N1C(=O)c2ccccc2C1=O`
Result :: inactive

Query :: Repeat for the following molecule: `CC(C)(C)c1cc(C(C)(C)C)c(NC(=O)c2c[nH]c3ccccc3c2=O)cc1O`
Result :: active

Query :: Item: `C[C@@H]1CN(CC(=O)Nc2ccc3c(c2)Cc2cccc(-c4cc(=O)cc(N5CCOCC5)o4)c2S3)C[C@H](C)O1`
Result :: inactive

----------
Test: Quantitative High-Throughput drug screen in 47 multiple myeloma cell lines against the NCATS MIPE library collection: JIM1_ECACC cell viability assay (AID 1918964; note: potency is the fitted concentration of half-maximal effect)
Details: JIM1 myeloma viability, CellTiter-Glo ATP luminescence, 48 h; series mostly up to 45.8 µM
Records with an inconclusive call do not appear. Calls of active or inactive are those of the source. Calls come from the whole dose curve; as a rule, active = well fitted cell-killing curve with a large enough effect; inconclusive = small, poorly fitted or top-dose-only effect, or effect the other way; inactive = no such curve, though single readings can be large or run the other way.
RECORDED_ENDPOINT: Potency

COMPOUND | Potency
CC(NCc1ccc2c(c1)nc(NC(=O)c1ccc(-c3cn[nH]c3)s1)n2CC(C)(C)O)C(C)(C)C (configuration not stated) | 46.9 nM (active)
CC(=O)Nc1nc(C)c(-c2ccc(Cl)c(S(=O)(=O)NCCO)c2)s1 | 1180 nM (active)
Nc1ccccc1NC(=O)c1ccc(CNc2nccc(-c3cccnc3)n2)cc1 | 1320 nM (active)
CCOc1ccccc1OCCNC(C)Cc1ccc(OC)c(S(N)(=O)=O)c1 (configuration not stated) | inactive
COc1cc2c(Oc3ccc(NC(=O)C4(C(=O)Nc5ccc(F)cc5)CC4)cc3F)ccnc2cc1OCCCN1CCOCC1 | 1660 nM (active)

Parameter requested: Potency. Apply to each item below.
1. C#Cc1cccc(Nc2ncnc3cc(OC)c(OCCCCCCC(=O)NO)cc23)c1
2. C1=CCOCc2cc(ccc2OCCN2CCCC2)Nc2nccc(n2)-c2cccc(c2)OCC1
3. CC(C)c1noc(N2CCC(COc3ccc(-c4ccc(S(C)(=O)=O)cc4)nc3)CC2)n1
4. CC(=O)c1c(C)c2cnc(Nc3ccc(N4CCNCC4)cn3)nc2n(C2CCCC2)c1=O
5. Cc1ccc(-c2ncn(-c3ccc(Nc4nccc(-c5cccc(N6CCOCC6)c5)n4)cc3)n2)cn1
6. CN1CCC(CNc2ccc3ncc(-c4cccc(OC(F)(F)F)c4)n3n2)CC1
7. C[C@@H](Oc1cc(-c2cnn(C3CCNCC3)c2)cnc1N)c1c(Cl)ccc(F)c1Cl
8. Nc1ncnc2c1c(-c1cccc(OCc3ccccc3)c1)cn2C1CC(CN2CCCC2)C1 (configuration not stated)

Result ::
66.2 nM (active)
743 nM (active)
inactive
5900 nM (active)
66.2 nM (active)
8330 nM (active)
3720 nM (active)
296 nM (active)

Quick batch: Potency for everything below.
1. CCC1=C[C@@H]2CN(C1)Cc1c([nH]c3ccccc13)[C@@](C(=O)OC)(c1cc3c(cc1OC)N(C)[C@@H]1[C@@](O)(C(=O)OC)[C@H](OC(C)=O)[C@]4(CC)C=CCN5CC[C@]31[C@@H]54)C2
2. CC=C1NC(=O)[C@H]2CSSCCC=C[C@H](CC(=O)N[C@H](C(C)C)C(=O)N2)OC(=O)[C@H](C(C)C)NC1=O
3. O=C(O)c1ccc2c(c1)nc(Nc1cccc(Cl)c1)c1ccncc12
4. Cc1cccc(C=NNc2cc(N3CCOCC3)nc(OCCc3ccccn3)n2)c1

Result ::
["1.9 nM (active)", "9.3 nM (active)", "6620 nM (active)", "935 nM (active)"]

----------
Test system: MCC-26
Test: qHTS assay to identify novel small-molecules to repurpose for Merkel cell carcinoma treatment (AID 1296009); note: potency is the fitted concentration of half-maximal effect; nearly all actives have a fitted effect of over 60% in size
Details: MCC and control cell lines, CellTiter-Glo viability, 72 h; series mostly up to 46 µM
Records with an inconclusive call do not appear. Activity calls are given as the source filed them. Calls follow the shape of the dose curve; as a rule, active = well fitted inhibition curve with a large enough effect; inconclusive = small, poorly fitted or top-dose-only effect; inactive = flat fitted curve, though single readings scatter.
Outcome field: choose from active, inactive

COMPOUND | CLASSIFICATION
Cc1ccc(C(=O)Nc2cccc(C(F)(F)F)c2)cc1-c1ccc2nc(NCCN3CCOCC3)ncc2c1 | active

Query :: Dear all, I need the recorded test outcome for `C=CC(=O)Nc1cccc(Oc2nc(Nc3ccc(N4CCN(C)CC4)cc3)ncc2Cl)c1` , thank you.
Result :: active

----------
Test: qHTS of pediatric cancer cell lines to identify multiple opportunities for drug repurposing: Confirmatory screen for SK-N-SH cells (AID 1347129);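 note: cells exposed to compound for 48 h before viability read; nearly all actives have a fitted effect of over 60% in size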
Details: SK-N-SH neuroblastoma cell viability; series mostly up to 46.1 µM
Protocol: Drug repurposing or repositioning has been offered as a strategy for drug development in oncology programs. […] [1] Shen, M et al. Quantitative high-throughput phenotypic screening of pediatric cancer cell lines identifies multiple opportunities for drug repurposing. […] Cells were assayed in growth media at a density of 500-1,000 cells/well. […] After a 15 min incubation at room temperature, samples were analyzed for luminescence intensity using a ViewLux High-throughput CCD imager equipped with clear filters.
Inconclusive results are not listed. Active and inactive are the calls of the source. The call rests on the fitted dose curve; in most records, active means well fitted cell-killing curve with a large enough effect; inconclusive means small, poorly fitted or top-dose-only effect; inactive means flat fitted curve, though single readings scatter.
A correct response names exactly one class from active, inactive

Query :: Fill in: this test's call for `CN(C)CCCN=c1c2ccccc2n(C)c2[nH]c(=O)n(C)c(=O)c12` is ___
Result :: inactive

Query :: Try this molecule too: `C[C@@H](Oc1cc(-c2cnn(C3CCNCC3)c2)cnc1N)c1c(Cl)ccc(F)c1Cl`
Result :: active

Query :: Same read-out for `CC(C)C[C@H](NC(=O)CNC(=O)c1cc(Cl)ccc1Cl)B(O)O` ?
Result :: active

Query :: Same question, `CC[C@@]1(O)C(=O)OCc2c1cc1n(c2=O)Cc2cc3cc(O)ccc3nc2-1` this time
Result :: active

Query :: Entry `COCCn1c2c([n+](Cc3cnccn3)c1C)C(=O)c1ccccc1C2=O` please
Result :: active

Query :: # iterate: `Cc1cc(C(=O)N2CCN(c3cccc(Cl)c3)CC2)n(-c2ccccc2)n1`
Result :: inactive

----------
Consider the following molecules; for each one, report its Potency.
Experiment: Quantitative High-Throughput drug screen in 47 multiple myeloma cell lines against the NCATS MIPE library collection: MM1R_ATCC cell viability assay (AID 1918981); note: potency is the fitted concentration of half-maximal effect; nearly all actives have a fitted effect of over 35% in size
Conditions: MM1R multiple myeloma cells, CellTiter-Glo viability, 48 h; series mostly up to 45.8 µM
Records with an inconclusive call do not appear. Active and inactive are the calls of the source. The call rests on the fitted dose curve; in most records, active means well fitted cell-killing curve with a large enough effect; inconclusive means small, poorly fitted or top-dose-only effect, or effect the other way; inactive means no such curve, though single readings can be large or run the other way.

SMILES_STR | Potency
CN1CC[C@@H](c2c(O)cc(O)c3c(=O)cc(-c4ccccc4Cl)oc23)[C@@H](O)C1 | 105 nM (active)

Hey, quick one: what's Potency for each of these?
1. COc1cc2ncn(-c3cc(OCc4ccccc4C(F)(F)F)c(C(N)=O)s3)c2cc1OC
2. CC[C@@H]1C(=O)N(C)c2cnc(Nc3ccc(C(=O)NC4CCN(C)CC4)cc3OC)nc2N1C1CCCC1
3. Nc1ccccc1NC(=O)c1ccc(CNC(=O)OCc2cccnc2)cc1

Result ::
18700 nM (active)
1180 nM (active)
833 nM (active)

Items follow; give Potency for each.
1. Cc1ccc(-c2ncn(-c3ccc(Nc4nccc(-c5cccc(N6CCOCC6)c5)n4)cc3)n2)cn1
2. Nc1nc(NCCNc2ncc(-n3ccnc3)c(-c3ccc(Cl)cc3Cl)n2)ccc1[N+](=O)[O-]
3. CN(C)CCCN=c1c2ccccc2n(C)c2[nH]c(=O)n(C)c(=O)c12
4. Nc1ccn([C@@H]2O[C@H](CO)[C@H](O)C2(F)F)c(=O)n1
5. COc1cccc2c(NCc3ccccc3)nc(-n3c(N)nc4ccccc43)nc12
6. C#Cc1cccc(Nc2ncnc3cc(OC)c(OCCCCCCC(=O)NO)cc23)c1
7. c1cc(-c2cnn3cc(-c4ccc(OCCN5CCCCC5)cc4)cnc23)ccn1
8. CNC(=O)c1cc(Oc2ccc(NC(=O)Nc3cc(C(C)(C)C)nn3-c3ccc4ncccc4c3)c(F)c2)ccn1

Result ::
1. 105 nM (active)
2. 16600 nM (active)
3. 18700 nM (active)
4. 9.3 nM (active)
5. 5900 nM (active)
6. 166 nM (active)
7. 18700 nM (active)
8. 7430 nM (active)

Give Potency for each of the items listed below.
1. CN1CCN(Cc2ccc(NC(=O)Nc3ccc(Oc4cc(NC(=O)C5CC5)ncn4)cc3)cc2C(F)(F)F)CC1
2. COc1cc2c(Oc3ccc(NC(=O)C4(C(=O)Nc5ccc(F)cc5)CC4)cc3F)ccnc2cc1OCCCN1CCOCC1

Result ::
1: 332 nM (active); 2: 4180 nM (active)
